Test system: PC-3 prostate
Assay: NCI tumour cell line growth inhibition, 48 h
Quick reference for TGI among some compounds

Compound: CC(C)N(c1cc2c(cc1F)c(=O)c(C(=O)O)cn2-c1ccc(N2CCN(C)CC2)cn1)C(C)C
TGI: > 100 µM
//
Compound: O=C1/C(=C/C(Cl)=C/c2ccccc2)SC(=S)N1CCc1ccc(O)cc1
TGI: 7.42 µM
//
Compound: COc1c(O)cc2c(c1O)C1O[C@H](CO)C(O)[C@H](O)[C@H]1OC2=O (some centres not stated)
TGI: > 100 µM
//
Compound: CCOC(=O)c1c(Cl)c2c(n1Cc1cc(OC)cc(OC)c1)-c1oncc1CCC2
TGI: > 100 µM
//
Compound: O=c1[nH]n(Cc2ccccc2CCl)c2ccc([N+](=O)[O-])cc12
TGI: > 100 µM

The compound "O=C1OC2(c3ccc(O)cc3Oc3cc(O)ccc32)c2c1c(-c1ccccc1)c(-c1ccccc1)c(-c1ccccc1)c2-c1ccccc1" showed TGI equal to 32.7 µM

Just so you know, measured TGI for "O=C(Cn1ccnc1[N+](=O)[O-])NCC(F)(F)C(F)(F)F" came out at > 100 µM

Recorded result, CC(C)=CCC/C(C)=C/CC/C(=C/COP(=O)(OCc1ccc([N+](=O)[O-])o1)N(C)CCCCCl)C(C)(C)C (configuration not stated) , TGI: 15.1 µM

Value of TGI reported for the compound Cn1cc(C2=C(c3c4n(c5ccccc35)CCC(CN)CC4)C(=O)NC2=O)c2ccccc21 (configuration not stated) is 7.95 µM

Data point: "CCNc1nc(N2CC(=O)Nc3cc(OC)ccc32)c2ccccc2n1" ; TGI = > 100 µM

----------
Test system: SNB-75 CNS
Assay: NCI tumour cell line growth inhibition, 48 h
Experimental readout: TGI

Molecule: Nc1nccc(Nc2ccc(S(N)(=O)=O)cc2)n1
TGI: > 100 µM
--
Molecule: CSc1sc(=S)sc1SC
TGI: > 90 µM

Query "CCOC(=O)/C=C1\Nc2ccccc2-n2nnnc21" yields TGI of > 100 µM

So, "COC(=O)c1nc2c3c(cccc3c1C(=O)OC)Nc1ccccc1-2" ? Its TGI was > 100 µM

Value of TGI reported for the molecule O=C(O)c1cccc(CC(Br)C(=O)O)c1 (stereo unspecified) is > 100 µM

// TGI lookup, molecule = "COC(=O)[C@@H](C)C[C@H](Cc1ccccc1)NC(=O)c1csc([C@@H](C[C@H](C(C)C)N(C)C(=O)[C@@H](NC(=O)[C@H]2CCCCN2C)C(C)C)OC(C)=O)n1" , result: > 25 µM

----------
System: ACHN renal
Test: NCI tumour cell line growth inhibition, 48 h
Experimental readout: TGI

Past entries and their recorded results:
Compound: N=C(N)C1CN(CC=O)C(=O)NC1=O (stereo not given)
TGI: > 100 µM
--
Compound: O=Cc1ccc2c(c1)CC1(C2)Cc2ccc(C=O)cc2C1
TGI: 62.1 µM
--
Compound: Cc1ccc(S(=O)(=O)N/N=C(\C(=O)Nc2cccc([N+](=O)[O-])c2)c2nc3ccc([N+](=O)[O-])cc3[nH]c2=O)cc1
TGI: > 100 µM

# compound "C/C(=C\c1ccn(-c2ccc(N)cc2)n1)[C@@H]1C[C@@H]2O[C@]2(C)CCC[C@H](C)[C@H](O)[C@@H](C)C(=O)C(C)(C)[C@@H](O)CC(=O)O1" ; its TGI = > 50 µM

Given item C=CCN(N=O)C(=O)N(CCC)CCCCC(NC(C)=O)C(=O)NCc1ccccc1 (stereo not given) , the value recorded as its TGI is > 100 µM

----------
System: MOLT-4 leukemia
Test: NCI tumour cell line growth inhibition, 48 h
Experimental readout: TGI (µM)
// units = µM; emit number, no label

Solved entries (count: 3):
Compound: C=C1CC(COc2ccc3ccc(=O)oc3c2)(c2ccccc2)OC1=O (stereo not given)
Study system: MOLT-4 leukemia
Units symbol: µM
TGI: 4.16

Compound: O=Cc1ccc2c(c1)CC1(C2)Cc2ccc(C=O)cc2C1
Study system: MOLT-4 leukemia
Units symbol: µM
TGI: 7.11

Compound: O=C(CC1(O)C(=O)Nc2c(Cl)cc(Cl)cc21)c1ccc2ccccc2c1 (stereo not given)
Study system: MOLT-4 leukemia
Units symbol: µM
TGI: 27.8

// TGI value for "O=C1c2cccnc2C(=O)c2c1nc1ccccc1c2-c1cncc(-c2c3c(nc4ccccc24)C(=O)c2cccnc2C3=O)c1" : 0.788

// "Clc1ccc2nc(CCSCCc3nc4ccc(Cl)cc4[nH]3)[nH]c2c1" : TGI value = 18.1

Sample CC(Oc1ccc(Cl)cc1Cl)C(=O)NN1C(=O)CSC1c1ccc(Cl)cc1 (stereo not given) ; TGI observed: 80.1

The compound listed as "O=c1[nH]n(Cc2ccccc2CCl)c2ccc([N+](=O)[O-])cc12" shows TGI equal to 90.8

Documented TGI of "COc1ccc(/C(Cl)=C(\C=O)c2ccc(Cl)c(Cl)c2)cc1OC" : 5.76

----------
System: UACC-257 melanoma
Assay: NCI tumour cell line growth inhibition, 48 h
molecules and their reported TGI

Example cases with answers are listed next.
Molecule: CN=S(=O)(C[C@]1(O)CC2OC1C1OC(C)(C)OC21)c1ccccc1 (stereo partly drawn)
TGI: > 100 µM
//
Molecule: O=C(CC(=O)C(F)(F)F)c1csc2ccccc12
TGI: > 100 µM

Next molecule, please.
The molecule identified as S=C1NN=C2C(=C3CCCC4C5CCCCC5N2C34)N1 (stereo not drawn) registered its TGI at > 100 µM

----------
Test system: A549 NSCLC
Experiment: NCI tumour cell line growth inhibition, 48 h
# TGI per record follows

For orientation, consider the following solved cases.
Compound: Cc1cc(C)nc(SC2=C(Nc3cccc(Cl)c3)C(=O)N(Cc3ccccc3)C2=O)n1
Experimental readout: TGI
Observed value: > 170 µM

Compound: O=C(O)C(Br)Cc1ccc2c(c1)OCO2 (stereo not given)
Experimental readout: TGI
Observed value: > 100 µM

Compound: CO[C@H](c1ccccc1)[C@H](O)[C@](O)(c1ccccc1)P(=O)(OC)OC
Experimental readout: TGI
Observed value: > 100 µM

Compound: COc1ccc(NC(C)=O)cc1N1C(=O)/C(=C\c2cc(OC)c(OC)c(OC)c2)S(=O)(=O)C1c1ccccc1 (stereo not given)
Experimental readout: TGI
Observed value: > 100 µM

We next turn to a different compound, shown below.
The reported value for Nc1ccc(C(=O)NN2C(=O)C(Cl)C2c2ccccc2O)cc1 (stereo not given) in terms of TGI is > 100 µM

----------
The entries below are paired with their reported TGI.
System: MDA-MB-435
Assay: NCI tumour cell line growth inhibition, 48 h

Cpd smiles: Cc1ccnc2c1ccc1nc3ccccc3n12
Study system: MDA-MB-435
TGI: > 100 µM

Cpd smiles: COC(=O)/C(C#N)=C(\Nc1ccccc1)N1CCCCC1
Study system: MDA-MB-435
TGI: > 100 µM

Consider the additional compound presented here.
Record "COc1cc2c(cc1OC)[C@@]1(C)C(=O)c3cc4c(cc3[C@H]1N(C)C2=O)OCO4" . Reported TGI: > 100 µM

----------
Tested on: A549 NSCLC
Test: NCI tumour cell line growth inhibition, 48 h
Experimental readout: TGI

Compound: CCOC(=O)/C(=C\NC(C)(C)C)c1nc2ccccc2o1
Observed value: > 100 µM
//
Compound: C/C(=C\c1ccn(-c2ccc(N)cc2)n1)[C@@H]1C[C@@H]2O[C@]2(C)CCC[C@H](C)[C@H](O)[C@@H](C)C(=O)C(C)(C)[C@@H](O)CC(=O)O1
Observed value: > 50 µM
//
Compound: C/C1=C\CC[C@@]2(C)O[C@@H]2[C@H]2OC(=O)C(C)C2C[C@H]1O (stereo partly drawn)
Observed value: > 100 µM
//
Compound: Nc1c(Cl)c([N+](=O)[O-])cc2c1OCCCCO2
Observed value: > 100 µM
//
Compound: CC(C)=CCC/C(C)=C/CC/C(=C/COP(=O)(OCc1ccc([N+](=O)[O-])o1)N(C)CCCCCl)C(C)(C)C (stereo not drawn)
Observed value: 27.5 µM
//
Compound: COC1CC2CCC(C)[C@](O)(O2)C(=O)C(=O)N2CCCCC2C(=O)OC(C(C)CC2CCC(O)C(OC)C2)CC(=O)C(C)C=C(C)C(OC(=O)CN(C)C)C(OC)C(=O)C(C)CC(C)/C=C/C=C/C=C\1C (stereo partly drawn)
Observed value: 26.9 µM

Item "Cc1ccc(C2=NO[C@@H]3C(=O)N(c4ccc(Cc5ccc(N6C(=O)[C@H]7C(c8ccc(C)cc8)=NO[C@H]7C6=O)cc5)cc4)C(=O)[C@H]23)cc1" was tested on A549 NSCLC; the reported TGI is > 100 µM

A549 NSCLC TGI of "O=C1c2ccccc2C(=O)c2nc(-c3ccccc3)c(-c3ccccc3)nc21" is > 84.2 µM

Measured on A549 NSCLC, "Nc1nncs1" has a documented TGI of 4980 µM

For "COC(=O)c1cc(C#N)[nH]c1-c1cccs1" on A549 NSCLC, measured TGI was > 100 µM
